# System: MDA-MB-231 breast cancer cells
# assay.text: MDA-MB-231 cell growth inhibition / cytotoxicity assay, incl. pH 6.2 vs pH 7.4
# settings: Homo sapiens, MDA-MB-231, pH 7.4
pIC50: −log10 of the molar value.
observed.property: pIC50

q: // query pIC50 value for entry NP(=O)(OCCSSCCCc1c(F)c(F)c(O)c(F)c1F)N(CCCl)CCCl (stereo not shown)
a: < 4.00
